# System: HL-60(TB) leukemia
# Experimental details: NCI tumour cell line growth inhibition, 48 h
Each record's class is read off its TGI using these ranges: low range (below 5 µM), mid range (5 µM to below 40 µM), high range (40 µM or more)

Compound	Category label
CC1=NN2C(c3ccc([N+](=O)[O-])cc3)=CSC2=NC(C)(C)C1	high range
C/C(=N\Nc1nc2ccccc2[nH]1)c1cnccn1	low range
COc1ccc(CCNC(=O)c2ccccc2C2c3ccc(OCc4ccccc4)cc3Oc3cc(OCc4ccccc4)ccc32)cc1OC	high range
CCC(=O)N1C/C(=C/c2ccc(Br)cc2)C(=O)/C(=C/c2ccc(Br)cc2)C1	mid range
CCCc1nc(Cl)c(Cl)c(Cl)n1	mid range
O=S(=O)(O)c1ccc2c(N=Nc3ccc(S(=O)(=O)O)c4ccccc34)c(O)c(S(=O)(=O)O)cc2c1	high range
N#C/C(=C1\OC(=N)C(c2ccccc2)C1=O)c1ccccc1 (stereo not drawn)	high range
C[N+](C)(C)c1cc[c]([Sn]([c]2ccc([N+](C)(C)C)cc2)([c]2ccc([N+](C)(C)C)cc2)[c]2ccc([N+](C)(C)C)cc2)cc1	high range
Cc1cc(S(=O)(=O)Nc2nnc3ccccn23)c(S)cc1Cl	high range
COc1ccc(C(=O)c2cc3c(N)c(C(=O)Nc4cccc(Br)c4C)sc3nc2C)cc1	low range
COc1cc(-c2nc3ccccc3o2)cc(CN2CCCCC2)c1O	mid range
C#C[C@@]1(O)[C@@H](CO)O[C@@H](n2cc(C(F)(F)F)c3c(N)ncnc32)[C@@H]1O	low range
COCN(C)c1nc(N(C)C)nc(N(C)C)n1	high range
COc1cc(/C=C(\NC(=O)c2ccccc2)c2nc3ncncc3[nH]2)cc(OC)c1OC	high range
O=CC1C(Cl)=Nc2nc3ccccc3n2C1c1ccccc1 (stereo not drawn)	high range
CCCCCCCCCCNCCSS(=O)(=O)O	low range
COC1C=COC2(C)Oc3c(C)c(O)c4c(O)c(c(C5SCCS5)c(O)c4c3C2=O)NC(=O)/C(C)=C\C=CC(C)C(O)C(C)C(O)C(C)C(OC(C)=O)C1C (stereo not drawn)	mid range
C=C1C(=O)O[C@H]2[C@H]1CC/C(COC(=O)/C=C\C(=O)NCc1ccc(Cn3c(=O)sn(CCI)c3=O)cc1)=C\CC[C@@]1(C)O[C@@H]21	mid range
COc1ccc(-c2oc3cc(OC(C)=O)cc(OC(C)=O)c3c(=O)c2OC)cc1	mid range
Clc1cccc(CNc2c3ccccc3nc3ccccc23)c1	low range
C=CCN1C[C@H](C)N([C@H](c2ccc(C(=O)N(CC)CC)cc2)c2cccc(OC)c2)C[C@H]1C	high range
CC(=O)OCC1OC(NC(=O)N(CCCl)N=O)C(OC(C)=O)C(OC(C)=O)C1OC(C)=O (stereo not drawn)	high range
Cn1c2ccccc2c2ccc3c(c21)C(=O)C(c1ccccc1)=CC3=O	high range
CSc1ccc(NC(=O)C2c3[nH]c4ccccc4c3C3CCC(C(C)(C)C)CC3C2C(=O)O)cc1 (stereo not drawn)	mid range
CC1C=CC(C(N)C(=O)O)O1 (stereo not drawn)	high range
COC(=O)CC(C(C(=O)OC)C(=O)OC)N1C(=O)OC(c2ccccc2)C1c1ccccc1 (stereo not drawn)	high range

* * *

Examples of compounds with documented TGI follow.
# System: UACC-257 melanoma
# Experimental details: NCI tumour cell line growth inhibition, 48 h
Measurement kind: TGI

                                   compound  measurement_kind       val
0  COC(=O)CN1C(=O)C2(C(=O)OC)OC1(c1ccc([N+](=O)[O-])cc1)C1C(=O)N(c3ccccc3)C(=O)C12 (stereo unspecified)               TGI  > 100 µM
1  CC(=O)c1ccccc1NC(=O)C(=O)C(C(=O)c1ccccc1-c1ccccc1)C1OC(=O)c2ccccc21 (stereo unspecified)               TGI   32.3 µM
2  COc1ccc(-c2csc(Cc3nc4c(Br)cc(Br)cc4c(=O)n3-c3ccc(OC)cc3)n2)cc1               TGI  > 100 µM
3        Clc1cccc(CNc2c3ccccc3nc3ccccc23)c1               TGI   4.25 µM
4       O=C1NC2(CCCCC2)C(=O)N1CCN(CCCl)CCCl               TGI  > 250 µM
5  NC(CCP(=O)(O)O)C(=O)O (stereo unspecified)               TGI  > 100 µM
